src = patent US9890124B2

Please respond with reported pEC50 for every item in the list.
- target_system: human TLR8 (Homo sapiens (Human), UniProt Q9NR97)
- Sequence (Q9NR97 27-1041): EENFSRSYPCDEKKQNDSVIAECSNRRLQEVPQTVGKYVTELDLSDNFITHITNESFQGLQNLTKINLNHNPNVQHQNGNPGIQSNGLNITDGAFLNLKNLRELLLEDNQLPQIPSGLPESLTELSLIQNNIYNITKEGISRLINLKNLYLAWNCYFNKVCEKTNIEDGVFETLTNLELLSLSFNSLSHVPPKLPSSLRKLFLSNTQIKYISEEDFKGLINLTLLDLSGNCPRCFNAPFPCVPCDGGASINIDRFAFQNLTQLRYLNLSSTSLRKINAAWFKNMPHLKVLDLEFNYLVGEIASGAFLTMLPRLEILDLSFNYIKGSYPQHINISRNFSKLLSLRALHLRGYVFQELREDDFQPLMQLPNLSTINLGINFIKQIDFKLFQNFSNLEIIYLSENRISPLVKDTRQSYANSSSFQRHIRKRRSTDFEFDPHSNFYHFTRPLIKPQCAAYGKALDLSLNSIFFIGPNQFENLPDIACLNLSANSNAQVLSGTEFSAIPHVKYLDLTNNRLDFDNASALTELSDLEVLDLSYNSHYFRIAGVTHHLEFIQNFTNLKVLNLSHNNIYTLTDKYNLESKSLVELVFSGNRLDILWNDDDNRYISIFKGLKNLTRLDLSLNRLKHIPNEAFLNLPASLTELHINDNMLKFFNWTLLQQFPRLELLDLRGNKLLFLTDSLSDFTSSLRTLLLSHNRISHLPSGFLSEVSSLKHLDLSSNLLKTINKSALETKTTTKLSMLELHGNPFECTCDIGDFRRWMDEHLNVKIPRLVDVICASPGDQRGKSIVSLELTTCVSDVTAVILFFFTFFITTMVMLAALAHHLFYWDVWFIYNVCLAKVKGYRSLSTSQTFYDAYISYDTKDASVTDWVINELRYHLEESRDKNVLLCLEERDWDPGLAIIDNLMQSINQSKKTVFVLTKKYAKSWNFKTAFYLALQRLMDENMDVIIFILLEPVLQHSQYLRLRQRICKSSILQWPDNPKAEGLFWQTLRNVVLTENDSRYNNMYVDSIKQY
- test: HEK-Blue human TLR8 cells NF-κB SEAP reporter assay
- measurement_setup: stimulation for 20 hours
pEC50 is defined as minus the log10 of a concentration measured in mol/L.

-- ask Consider the compound "CCCN(CCC)C(=O)C1=Cc2ccc(-c3cncc(S(N)(=O)=O)c3)cc2N=C(N)C1" . State its measured pEC50.
-- reply 7.64

-- ask Consider the compound "CCCN(CCC)C(=O)C1=Cc2ccc(-c3cccc(S(=O)(=O)N4CCCC4)c3)cc2N=C(N)C1" . State its measured pEC50.
-- reply 8.22

-- ask Consider the compound "CCCN(CCC)C(=O)C1=Cc2ccc(-c3cccc(S(=O)(=O)NCCOCCO)c3)cc2N=C(N)C1" . State its measured pEC50.
-- reply 8.10

-- ask Consider the compound "CCCN(CCC)C(=O)C1=Cc2ccc(-c3cccc(S(=O)(=O)N4CC[C@@H](O)C4)c3C)cc2N=C(N)C1" . State its measured pEC50.
-- reply 8.05

-- ask Consider the compound "CCCN(CCC)C(=O)C1=Cc2ccc(-c3cccc(S(=O)(=O)N4CCC(O)CC4)c3)cc2N=C(N)C1" . State its measured pEC50.
-- reply 8.40

-- ask Consider the compound CCCN(CCC)C(=O)C1=Cc2ccc(-c3cccc(S(=O)(=O)N4CCC(O)C4)c3)cc2N=C(N)C1 (centres unmarked) . State its measured pEC50.
-- reply 8.52

-- ask Consider the compound "CCCN(CCC)C(=O)C1=Cc2ccc(-c3cccc(S(=O)(=O)N(C)CCO)c3)cc2N=C(N)C1" . State its measured pEC50.
-- reply 8.40

-- ask Consider the compound "CCCN(CCC)C(=O)C1=Cc2ccc(-c3cccc(S(N)(=O)=O)c3)cc2N=C(N)C1" . State its measured pEC50.
-- reply 8.22
